- Test system: Sarcoma-180
- Measurement notes: Phosphorylation by uridine/cytidine kinase(UCK) from mouse sarcoma -180 ascites cells was measured.
- Format: functional
Phosphorylating activity values, listed per item
Value kind: Phosphorylating activity (pmol/min/assay)

{"columns": ["Compound", "Assay result"],
 "data": [
  ["C#C[C@]1(O)[C@@H](CO)O[C@@H](n2ccc(=O)[nH]c2=O)[C@@H]1O", 141],
  ["C=C[C@@]1(O)[C@@H](CO)O[C@@H](n2ccc(=O)[nH]c2=O)[C@@H]1O", 9.3],
  ["C#C[C@@H]1[C@@H](O)[C@H](n2ccc(N)nc2=O)O[C@@H]1CO", 6.9],
  ["C=C[C@@]1(O)[C@@H](CO)O[C@@H](n2ccc(N)nc2=O)[C@@H]1O", 0],
  ["CC[C@@]1(O)[C@@H](CO)O[C@@H](n2ccc(N)nc2=O)[C@@H]1O", 0],
  ["Nc1ccn([C@@H]2O[C@H](CO)[C@@H](O)[C@H]2O)c(=O)n1 [CYTIDINE]", 812],
  ["O=c1ccn([C@@H]2O[C@H](CO)[C@@H](O)[C@H]2O)c(=O)[nH]1 [URIDINE]", 755],
  ["CCC#C[C@@]1(O)[C@@H](CO)O[C@@H](n2ccc(N)nc2=O)[C@@H]1O", 0],
  ["CC#C[C@@]1(O)[C@@H](CO)O[C@@H](n2ccc(N)nc2=O)[C@@H]1O", 160]
]}
